procedure-details: Plasma concentrations (PK), Example 1
Assay type: in vivo, human
setup-conditions: human, plasma, oral, 25 mg, weight >90 kg, 25 mg BID, Week 16, Trough; read-out: Plasma concentration, Median
recorded-endpoint: level at 2688 h (ng/mL)
Give the number; ng/mL is assumed, so skip it.

Q) I have this compound here, CC(=O)NCCCC[C@@H]1NC(=O)[C@H](Cc2c[nH]c3c(C)cccc23)NC(=O)[C@H]([C@@H](C)O)NC(=O)[C@H](CC(N)=O)NC(=O)[C@@H](NC(C)=O)C(C)(C)SSC(C)(C)[C@@H](C(=O)N[C@@H](Cc2ccc(OCCN)cc2)C(=O)N[C@@H](Cc2ccc3ccccc3c2)C(=O)NC2(C(=O)N[C@@H](CCC(=O)O)C(=O)N[C@@H](CC(N)=O)C(=O)N[C@@H](Cc3cccnc3)C(=O)N(C)CC(N)=O)CCOCC2)NC1=O [IL-23 receptor antagonist peptide] , and I need its recorded level at 2688 h.
A) 0.138
